SYSTEM: hROMK (Homo sapiens (Human))
ASSAY_DETAILS: ROMK Manual Patch Clamp Assay
STUDY_CONDITIONS: whole-cell manual patch clamp, hROMK current; read-out: ROMK EP IC50
So I've got a bunch of compounds here, and I need their pIC50 values.
Here pIC50 is given on a logarithmic scale as minus log10 of the concentration in mol/L.

Form field - read-out: pIC50; system: hROMK (Homo sapiens (Human)); submitted item: COc1cc(-c2ccc(CNC[C@H](O)c3ccc4c(c3C)COC4=O)cn2)ncc1C#N [Example 130]
8.96

Proceed to COc1cc(-n2cc(CNC(C)C(O)c3ccc4c(c3C)COC4=O)nn2)ncc1C#N (single isomer, unassigned) [Example 91-I]
7.96

Same for Cc1cc(-c2cc(CNC[C@H](O)c3ccc4c(c3C)COC4=O)on2)ncc1C#N [Example 140]
7.80

Further, for CN(Cc1ccc(-c2ccc3oc(=O)n(C)c3c2)nc1)C[C@H](O)c1ccc2oc(=O)n(C)c2c1 [Example 6-I] ?
7.96

// same read-out, input: Cc1cn(-c2ncc(CNC[C@H](O)c3ccc4c(c3C)COC4=O)cn2)cn1 [Example 106]
8.04

// next record Cc1c(C(O)CN(C)Cc2ccc(-c3ccc4oc(=O)n(C)c4c3)nc2)ccc2c1COC2=O (stereo not drawn) [Example 1-I]
7.72

# repeat for Cc1c([C@@H](O)CNC(=O)c2cnc(-c3ccc4oc(=O)n(C)c4c3)s2)ccc2c1COC2=O [Example 136]
7.07

Please answer likewise for COc1cc(-c2cc(CNC[C@H](O)c3ccc4c(c3C)COC4=O)on2)ncc1C#N [Example 137]
7.59

Query Cc1c(C(O)CN(C)Cc2ccc(-c3ccc(C#N)c(F)c3)cc2)ccc2c1COC2=O (single isomer, unassigned) [Example 27-I] next
8.17

Then Cc1cc(-n2cc(CNC[C@H](O)c3ccc4c(c3C)COC4=O)nn2)nc(C)c1C#N [Example 69] ?
8.21

Now the same for Cc1nn(-c2ncc(CNC[C@H](O)c3ccc4c(c3C)COC4=O)cn2)cc1C#N [Example 105]
8.11

Could you do the same for Cc1cc(-n2cc(CNC[C@H](NS(C)(=O)=O)c3ccc4c(c3C)COC4=O)cn2)ncc1C#N [Example 61] , please?
7.57

// repeat for COc1cc(-n2cnc(CNC[C@H](O)c3ccc4c(c3C)COC4=O)c2)ncc1C#N [Example 51] and report
7.42

Next: COc1nc(-n2cc(CNC[C@H](O)c3ccc4c(c3C)COC4=O)nn2)cc(C)c1C#N [Example 67]
8.03

Same question, Cc1nc(-n2cc(CNC[C@H](O)c3ccc4c(c3C)COC4=O)cn2)ncc1C#N (single isomer, unassigned) [Example 50] this time
7.31

====

Give pIC50 for every item shown.
SYSTEM: hROMK (human Kir1.1) (Homo sapiens (Human))
ASSAY_DETAILS: Thallium Flux Assay (FluxOR, CHO T-Rex hROMK stable cell line)
STUDY_CONDITIONS: CHO T-Rex hROMK cells, 10-point concentration response curve; read-out: Human ROMK TH Flux IC50
Reminder that pIC50 is minus the log10 of a molar concentration.

GET /values?readout=pIC50&item= "Cc1cc(-c2cnc(CNC[C@H](O)c3ccc4c(c3C)COC4=O)nc2)ncc1C#N"
6.47

Query "Cc1ncn(-c2ncc(CNC[C@H](O)c3ccc4c(c3C)COC4=O)cn2)n1" next
6.68

Record: "CCc1nn(-c2ccc(CNC[C@H](O)c3ccc4c(c3C)COC4=O)cn2)cc1C#N"
7.26

Cc1c(C(O)CN(C)Cc2ccc(-n3ccc4c(C#N)cccc43)cc2)ccc2c1COC2=O (single isomer, unassigned) [Example 28-I] ?
6.74

Do the same for Cc1c([C@@H](O)CNCc2cnn(-c3cc(F)c4oc(=O)n(C)c4c3)c2)ccc2c1COC2=O (single isomer, unassigned) please
7.57

Continue with "COC(=O)N[C@@H](CNCc1cnn(-c2cc(C)c(C#N)cn2)c1)c1ccc2c(c1C)COC2=O"
7.14

Okay, and "Cc1cc(-c2ncc(CNC[C@H](O)c3ccc4c(c3C)COC4=O)s2)ncc1C#N" ?
8.18

Next record, please: "COc1cc(-c2ncc(CNC[C@H](O)c3ccc4c(c3C)COC4=O)cn2)ncc1C#N"
7.11

Now try Cc1c(C(O)CN(C)Cc2ccc(-n3ccc4c(C#N)cccc43)nc2)ccc2c1COC2=O (single isomer, unassigned) [Example 25-I] .
6.62

Try this compound too: "COc1cc(-c2ncc(CNC[C@H](O)c3ccc4c(c3C)COC4=O)s2)ncc1C#N"
8.10

Also need "COc1cc(-n2cc(CNC[C@H](O)c3ccc4c(c3C)COC4=O)cn2)ccn1" , thanks.
6.28

Check Cc1c(C(O)CN(Cc2ccc(-c3ccc(C#N)c(F)c3)cc2)Cc2cccnc2)ccc2c1COC2=O (stereo not drawn) too.
5.43

Thanks! And "Cc1cc(-n2cc(CNC[C@@H](c3ccc4c(c3C)COC4=O)N(C)S(C)(=O)=O)cn2)ncc1C#N" ?
7.42

Entry to check: "COc1nn(-c2ncc(CNC[C@H](O)c3ccc4c(c3C)COC4=O)cn2)cc1C#N"
7.85

Likewise for "Cc1nn(-c2ccc(CNC[C@H](O)c3ccc4c(c3C)COC4=O)cn2)cc1C#N" ?
8.44

====

Would you kindly list IC50 for each of these compounds?
SYSTEM: hROMK (human Kir1.1) (Homo sapiens (Human), UniProt P48048)
Sequence (P48048 whole entry): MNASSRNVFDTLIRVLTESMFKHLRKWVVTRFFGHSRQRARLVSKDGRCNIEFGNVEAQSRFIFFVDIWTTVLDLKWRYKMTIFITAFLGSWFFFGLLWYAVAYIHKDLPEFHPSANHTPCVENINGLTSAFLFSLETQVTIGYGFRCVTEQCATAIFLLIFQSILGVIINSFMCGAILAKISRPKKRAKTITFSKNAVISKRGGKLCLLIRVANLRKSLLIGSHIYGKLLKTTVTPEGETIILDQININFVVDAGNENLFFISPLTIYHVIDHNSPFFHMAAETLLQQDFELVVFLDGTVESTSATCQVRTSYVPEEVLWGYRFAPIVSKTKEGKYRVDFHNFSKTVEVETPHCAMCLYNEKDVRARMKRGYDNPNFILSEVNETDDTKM
ASSAY_DETAILS: Thallium Flux Assay (FluxOR, CHO T-Rex hROMK stable cell line)
STUDY_CONDITIONS: CHO T-Rex hROMK cells, 10-point concentration response curve; read-out: Human ROMK TH Flux IC50
I'd appreciate it if you included the unit after the number.

For the compound shown here, "Cc1c([C@@H](O)CNCc2cnn(-c3cnc(C#N)cn3)c2)ccc2c1COC2=O" , give the reported IC50.
32 nM

Moving on to Cc1cc(-n2cc(CNCC(O)c3ccc4c(c3C)C(C)OC4=O)cn2)ncc1C#N (single isomer, unassigned) [Example 172-I]
850 nM

// same read-out, input: "Cc1cc(-n2cc(CNC[C@H](O)c3ccc4c(c3C)COC4=O)c(C)n2)ncc1C#N"
59 nM

Same thing, different compound: Cc1c(C(O)CN(C)Cc2ccc(-n3ccc4cc(C#N)ccc43)cc2)ccc2c1COC2=O (single isomer, unassigned) [Example 32-I]
530 nM

Do the same for "Cc1cn(-c2ccc(CNC[C@H](O)c3ccc4c(c3C)COC4=O)c(C)n2)cn1" please
190 nM

Try this compound too: "Cc1c([C@@H](O)CNC(=O)c2cnc(-c3ccc4oc(=O)n(C)c4c3)s2)ccc2c1COC2=O"
70 nM

Now the compound "Cc1cc(-n2cc(CNC[C@H](NC(=O)CO)c3ccc4c(c3C)COC4=O)cn2)ncc1C#N"
130 nM

Next: Cc1c(C(O)CN(C)Cc2cnc(-n3ncc4ncccc43)nc2)ccc2c1COC2=O (single isomer, unassigned)
1500 nM

Another: "COc1cc(-c2ccc(CNC[C@H](O)c3ccc4c(c3C)COC4=O)c(OC)n2)ncc1C#N"
31 nM

Now consider "Cc1c([C@@H](O)CN(CCCC(F)(F)F)Cc2ccc(-c3ccc4oc(=O)n(C)c4c3)nc2)ccc2c1COC2=O" and answer again.
260 nM

Moving on to the next compound: "Cc1cc(C#N)cnc1-n1cc(CNC[C@H](O)c2ccc3c(c2C)COC3=O)cn1"
440 nM

Also Cc1c(C(O)CN(C)Cc2ccc(-n3cc(C#N)c4ccccc43)cc2)ccc2c1COC2=O (single isomer, unassigned) [Example 12-II] , if possible.
520 nM

What do you have for Cc1c(C(O)CNCc2ccc3c(cnn3-c3ccc(F)cc3)c2)ccc2c1COC2=O (single isomer, unassigned) ?
480 nM

And what about the compound Cc1c(C(CO)N(C)Cc2cnc(-c3ccc4oc(=O)n(C)c4c3)nc2)ccc2c1COC2=O (single isomer, unassigned) ?
4000 nM

Here is the next compound: "Cc1cn(-c2ncc(CNC[C@H](O)c3ccc4c(c3C)COC4=O)cn2)cn1"
26 nM

For "Cc1c([C@@H](O)CNCc2cccc(-c3ccc4oc(=O)n(C)c4c3)n2)ccc2c1COC2=O" then?
900 nM

Please answer likewise for "CCOc1cc(-n2ncc(CNC[C@H](O)c3ccc4c(c3C)COC4=O)n2)ncc1C#N"
31 nM

Follow-up entry: "Cc1cc(-n2cc(CNC[C@H](O)c3ccc4c(c3C)COC4=O)c(C(F)F)n2)ncc1C#N"
15 nM

Can you handle "COc1nc(-n2cc(CNC[C@H](O)c3ccc4c(c3C)COC4=O)nn2)cc(C)c1C#N" next?
20 nM

Try this compound too: "Cc1c([C@@H](O)CNCc2cnn(-c3ccc4oc(=O)n(C)c4n3)c2)ccc2c1COC2=O"
130 nM

Please do the same for "COc1cc(-c2cc(CNC[C@H](O)c3ccc4c(c3C)COC4=O)on2)ncc1C#N" as well.
35 nM

Queued: "Cc1c([C@@H](O)CNCc2cnc(-n3cc(C#N)c(C(F)F)n3)nc2)ccc2c1COC2=O"
20 nM

Can you check "CCOc1cc(-n2cc(CNC[C@H](O)c3ccc4c(c3C)COC4=O)cn2)ncc1C#N" next?
6.2 nM

Entry "Cc1cn(-c2ncc(CNC[C@H](O)c3ccc4c(c3C)COC4=O)cn2)nc1C#N" please
56 nM

Another compound to check: "Cc1c([C@@H](O)CNCc2ccc(-n3cc(C(N)=O)cn3)nc2)ccc2c1COC2=O"
1000 nM

Input Cc1c(C(O)CN(C)Cc2ccc(-n3ccc4c(C#N)cccc43)nc2)ccc2c1COC2=O (single isomer, unassigned) [Example 25-II]
520 nM

And "Cc1cc(-n2cc(CNC[C@H](O)c3ccc4c(c3C)COC4=O)c3cccnc32)ncc1C#N" ?
59 nM

Field entry: "CO[C@@H](CNCc1cnn(-c2cc(C)c(C#N)cn2)c1)c1ccc2c(c1C)COC2=O"
37 nM

Again, but for "CCOc1cc(-n2cc(CNC[C@H](O)c3ccc4c(c3C)COC4=O)nn2)ncc1C#N"
9.7 nM

Quick one: "Cc1c([C@@H](O)CNCc2cnc(-n3cc(C#N)c(C(F)(F)F)n3)nc2)ccc2c1COC2=O"
42 nM
